system: absorption of phosphorus; experiment: Evaluation of efficacy as phosphorus absorption inhibitors: serum radioactivity AUC (0-120 min) after oral 32P NaH2PO4 in rats, inhibitory rate; format: in vivo; settings: rats of SD line, oral dose 100 mg/5 mL/kg, 32P NaH2PO4 given orally 5 min later, serum radioactivity AUC 0-120 min vs control
Structures can show the parent of a compound that is named as a salt.
Measured Parameter: Inhibitory Rate (%) of Phosphorus Absorption
Write down the numeric answer in % and omit the unit.

Inhibitory Rate (%) of Phosphorus Absorption in this record for NCCCC[C@H](N)C(=O)N(CCCCN(CCCNC(=O)[C@@H](N)CCCN)C(=O)[C@@H](N)CCCCN)CCCNC(=O)[C@@H](N)CCCN [Example 13, SPM(Orn)2(Lys)2 Hydrochloride] : 36

Inhibitory Rate (%) of Phosphorus Absorption in this record for NCCCC[C@H](NC(=O)[C@H](CCCCN)NC(=O)[C@@H](N)CCCCN)C(=O)NCCCN(CCCCN(CCCNC(=O)[C@H](CCCCN)NC(=O)[C@H](CCCCN)NC(=O)[C@@H](N)CCCCN)C(=O)[C@H](CCCCN)NC(=O)[C@H](CCCCN)NC(=O)[C@@H](N)CCCCN)C(=O)[C@H](CCCCN)NC(=O)[C@H](CCCCN)NC(=O)[C@@H](N)CCCCN [Example 20, SPM(Lys)12 Hydrochloride] : 60
